- System: HL-60
- assayText: Cytotoxicity against human HL60 cells
- Assay type: functional, cell-based
Entries and their IC50
assayEndpoint: IC50

INSERT INTO assay_data (smilesrepr, assayendpoint, endpointresult) VALUES
  ('N[C@H]1CCN(c2c(F)cc3c(=O)c(C(=O)O)cn4c3c2Sc2ccccc2-4)C1', 'IC50', '11.5 µM'),
  ('N[C@H]1CCN(c2c(F)cc3c(=O)c(C(=O)O)cn4c3c2Oc2ccc([N+](=O)[O-])cc2-4)C1', 'IC50', '9.93 µM'),
  ('N[C@H]1CCN(c2c(F)cc3c(=O)c(C(=O)O)cn4c3c2Oc2ccccc2-4)C1', 'IC50', '2.4 µM'),
  ('O=C(O)c1cn2c3c(c(F)c(F)cc3c1=O)Oc1ccccc1-2', 'IC50', '> 50 µM'),
  ('N[C@H]1CCN(c2c(F)cc3c(=O)c(C(=O)O)cn4c3c2Oc2ccc(Cl)cc2-4)C1', 'IC50', '1.63 µM');

---

- targetSystem: UniProt P11388
- Sequence (P11388 whole entry): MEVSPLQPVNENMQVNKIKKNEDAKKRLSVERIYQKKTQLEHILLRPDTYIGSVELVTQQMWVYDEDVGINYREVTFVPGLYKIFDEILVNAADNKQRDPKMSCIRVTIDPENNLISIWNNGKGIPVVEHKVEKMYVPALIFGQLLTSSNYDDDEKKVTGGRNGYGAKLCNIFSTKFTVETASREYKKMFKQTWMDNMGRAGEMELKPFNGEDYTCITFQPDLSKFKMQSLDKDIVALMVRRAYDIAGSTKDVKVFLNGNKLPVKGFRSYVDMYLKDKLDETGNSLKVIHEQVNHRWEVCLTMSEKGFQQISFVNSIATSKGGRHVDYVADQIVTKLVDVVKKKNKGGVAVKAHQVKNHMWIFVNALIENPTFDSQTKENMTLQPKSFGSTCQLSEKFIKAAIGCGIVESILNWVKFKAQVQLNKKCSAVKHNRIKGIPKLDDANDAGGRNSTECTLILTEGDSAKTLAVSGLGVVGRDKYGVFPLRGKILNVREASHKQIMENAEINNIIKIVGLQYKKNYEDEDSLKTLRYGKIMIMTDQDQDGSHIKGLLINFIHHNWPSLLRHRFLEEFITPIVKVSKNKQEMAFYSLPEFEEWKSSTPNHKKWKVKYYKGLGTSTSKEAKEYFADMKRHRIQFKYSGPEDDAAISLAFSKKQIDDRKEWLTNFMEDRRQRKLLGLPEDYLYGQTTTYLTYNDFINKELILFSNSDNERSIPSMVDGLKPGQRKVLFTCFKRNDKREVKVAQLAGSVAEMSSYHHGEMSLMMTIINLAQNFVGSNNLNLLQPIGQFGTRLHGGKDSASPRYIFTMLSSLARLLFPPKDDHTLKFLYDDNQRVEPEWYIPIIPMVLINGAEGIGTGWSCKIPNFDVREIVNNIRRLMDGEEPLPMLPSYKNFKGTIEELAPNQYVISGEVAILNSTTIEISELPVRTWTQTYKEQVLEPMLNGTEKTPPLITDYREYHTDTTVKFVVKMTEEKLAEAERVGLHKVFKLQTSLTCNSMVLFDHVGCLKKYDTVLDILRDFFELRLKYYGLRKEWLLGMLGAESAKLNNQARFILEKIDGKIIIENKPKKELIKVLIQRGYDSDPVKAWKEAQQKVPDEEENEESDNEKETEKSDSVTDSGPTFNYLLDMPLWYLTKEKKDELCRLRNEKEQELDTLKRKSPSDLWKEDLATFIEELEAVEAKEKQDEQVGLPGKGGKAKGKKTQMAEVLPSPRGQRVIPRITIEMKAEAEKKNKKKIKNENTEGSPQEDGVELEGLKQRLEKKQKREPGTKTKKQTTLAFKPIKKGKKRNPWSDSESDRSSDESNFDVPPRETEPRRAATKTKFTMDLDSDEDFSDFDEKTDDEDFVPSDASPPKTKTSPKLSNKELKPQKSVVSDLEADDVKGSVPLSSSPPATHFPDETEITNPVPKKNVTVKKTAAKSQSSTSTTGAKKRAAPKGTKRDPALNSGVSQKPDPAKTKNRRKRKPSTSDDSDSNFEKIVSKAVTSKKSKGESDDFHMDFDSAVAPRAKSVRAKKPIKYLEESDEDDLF
- assayText: Inhibition of human topoisomerase 2alpha assessed as relaxation of supercoiled DNA pBR322 at 10 uM relative to etoposide
assayEndpoint: inhibition (%)

INSERT INTO assay_data (molecule, endpointresult) VALUES
  ('N[C@H]1CCN(c2c(F)cc3c(=O)c(C(=O)O)cn4c3c2Sc2ccccc2-4)C1', 91.7),
  ('O=C(O)c1cn2c3c(c(F)c(F)cc3c1=O)Oc1ccccc1-2', 82.4),
  ('COc1cc([C@@H]2c3cc4c(cc3[C@@H](O[C@@H]3O[C@@H]5CO[C@@H](C)O[C@H]5[C@H](O)[C@H]3O)[C@H]3COC(=O)[C@H]23)OCO4)cc(OC)c1O [ETOPOSIDE]', 40.9),
  ('N[C@H]1CCN(c2c(F)cc3c(=O)c(C(=O)O)cn4c3c2Oc2ccc(Cl)cc2-4)C1', 88.6),
  ('N[C@H]1CCN(c2c(F)cc3c(=O)c(C(=O)O)cn4c3c2Oc2nc(O)ncc2-4)C1', 28.8),
  ('N[C@H]1CCN(c2c(F)cc3c(=O)c(C(=O)O)cn4c3c2Oc2ccccc2-4)C1', 89.4),
  ('N[C@H]1CCN(c2c(F)cc3c(=O)c(C(=O)O)cn4c3c2Oc2cc(S(=O)(=O)O)c3ccccc3c2-4)C1', 24.7),
  ('N[C@H]1CCN(c2c(F)cc3c(=O)c(C(=O)O)cn4c3c2Oc2ccc([N+](=O)[O-])cc2-4)C1', 91.6);

---

- Species: Bos taurus
- assayText: Inhibition of calf thymus topoisomerase 1 assessed as relaxation of supercoiled DNA pBR322 at 2 uM relative to camptothecin
Entries and their inhibition
assayEndpoint: inhibition (%)

INSERT INTO measurements (smilesrepr, endpointresult) VALUES
  ('N[C@H]1CCN(c2c(F)cc3c(=O)c(C(=O)O)cn4c3c2Oc2nc(O)ncc2-4)C1', 32.4),
  ('N[C@H]1CCN(c2c(F)cc3c(=O)c(C(=O)O)cn4c3c2Oc2ccccc2-4)C1', 88.9),
  ('N[C@H]1CCN(c2c(F)cc3c(=O)c(C(=O)O)cn4c3c2Oc2ccc([N+](=O)[O-])cc2-4)C1', 65.7),
  ('CC[C@@]1(O)C(=O)OCc2c1cc1n(c2=O)Cc2cc3ccccc3nc2-1', 63.3),
  ('N[C@H]1CCN(c2c(F)cc3c(=O)c(C(=O)O)cn4c3c2Oc2cc(S(=O)(=O)O)c3ccccc3c2-4)C1', 39.1),
  ('N[C@H]1CCN(c2c(F)cc3c(=O)c(C(=O)O)cn4c3c2Oc2ccc(Cl)cc2-4)C1', 87.9),
  ('N[C@H]1CCN(c2c(F)cc3c(=O)c(C(=O)O)cn4c3c2Sc2ccccc2-4)C1', 45.1),
  ('O=C(O)c1cn2c3c(c(F)c(F)cc3c1=O)Oc1ccccc1-2', 53.5);

---

- System: MDA-MB-231
- assayText: Cytotoxicity against human MDA-MB-231 cells
- Type: functional, cell-based
assayEndpoint: IC50 (µM)

INSERT INTO results (compound, readingqualifier, endpointresult) VALUES
  ('CC[C@@]1(O)C(=O)OCc2c1cc1n(c2=O)Cc2cc3ccccc3nc2-1 [CAMPTOTHECIN]', '=', 4.16),
  ('N[C@H]1CCN(c2c(F)cc3c(=O)c(C(=O)O)cn4c3c2Sc2ccccc2-4)C1', '=', 19.2),
  ('N[C@H]1CCN(c2c(F)cc3c(=O)c(C(=O)O)cn4c3c2Oc2ccccc2-4)C1', '=', 4.34),
  ('COc1cc([C@@H]2c3cc4c(cc3[C@@H](O[C@@H]3O[C@@H]5CO[C@@H](C)O[C@H]5[C@H](O)[C@H]3O)[C@H]3COC(=O)[C@H]23)OCO4)cc(OC)c1O [ETOPOSIDE]', '=', 16.2),
  ('N[C@H]1CCN(c2c(F)cc3c(=O)c(C(=O)O)cn4c3c2Oc2cc(S(=O)(=O)O)c3ccccc3c2-4)C1', '>', 50),
  ('O=C(O)c1cn2c3c(c(F)c(F)cc3c1=O)Oc1ccccc1-2', '>', 50),
  ('N[C@H]1CCN(c2c(F)cc3c(=O)c(C(=O)O)cn4c3c2Oc2ccc([N+](=O)[O-])cc2-4)C1', '=', 19.8),
  ('N[C@H]1CCN(c2c(F)cc3c(=O)c(C(=O)O)cn4c3c2Oc2nc(O)ncc2-4)C1', '>', 50),
  ('COc1cccc2c1C(=O)c1c(O)c3c(c(O)c1C2=O)C[C@@](O)(C(=O)CO)C[C@@H]3O[C@H]1C[C@H](N)[C@H](O)[C@H](C)O1 [DOXORUBICIN]', '=', 1.39),
  ('N[C@H]1CCN(c2c(F)cc3c(=O)c(C(=O)O)cn4c3c2Oc2ccc(Cl)cc2-4)C1', '=', 19.3);

---

- Tested on: HL-60
- assayText: Cytotoxicity against human HL60 cells
- Assay type: functional, cell-based
pIC50: −log10 of the molar value.
Entries and their pIC50
assayEndpoint: pIC50

INSERT INTO results (compound, targetsystem, readingqualifier, endpointresult) VALUES
  ('COc1cccc2c1C(=O)c1c(O)c3c(c(O)c1C2=O)C[C@@](O)(C(=O)CO)C[C@@H]3O[C@H]1C[C@H](N)[C@H](O)[C@H](C)O1', 'HL-60', '=', 6.14),
  ('N[C@H]1CCN(c2c(F)cc3c(=O)c(C(=O)O)cn4c3c2Oc2cc(S(=O)(=O)O)c3ccccc3c2-4)C1', 'HL-60', '<', 4.30),
  ('N[C@H]1CCN(c2c(F)cc3c(=O)c(C(=O)O)cn4c3c2Oc2nc(O)ncc2-4)C1', 'HL-60', '<', 4.30),
  ('CC[C@@]1(O)C(=O)OCc2c1cc1n(c2=O)Cc2cc3ccccc3nc2-1', 'HL-60', '=', 7.89),
  ('COc1cc([C@@H]2c3cc4c(cc3[C@@H](O[C@@H]3O[C@@H]5CO[C@@H](C)O[C@H]5[C@H](O)[C@H]3O)[C@H]3COC(=O)[C@H]23)OCO4)cc(OC)c1O [ETOPOSIDE]', 'HL-60', '=', 5.84);

---

Entries and their inhibition
- Species on record: Bos taurus
- assayText: Inhibition of calf thymus topoisomerase 1 assessed as relaxation of supercoiled DNA pBR322 at 20 uM relative to camptothecin
assayEndpoint: inhibition (%)

INSERT INTO measurements (compound, unitabbreviation, endpointresult) VALUES
  ('CC[C@@]1(O)C(=O)OCc2c1cc1n(c2=O)Cc2cc3ccccc3nc2-1 [CAMPTOTHECIN]', '%', 84.1),
  ('N[C@H]1CCN(c2c(F)cc3c(=O)c(C(=O)O)cn4c3c2Oc2ccccc2-4)C1', '%', 90.2),
  ('N[C@H]1CCN(c2c(F)cc3c(=O)c(C(=O)O)cn4c3c2Oc2nc(O)ncc2-4)C1', '%', 0),
  ('N[C@H]1CCN(c2c(F)cc3c(=O)c(C(=O)O)cn4c3c2Sc2ccccc2-4)C1', '%', 97.2),
  ('N[C@H]1CCN(c2c(F)cc3c(=O)c(C(=O)O)cn4c3c2Oc2cc(S(=O)(=O)O)c3ccccc3c2-4)C1', '%', 25),
  ('N[C@H]1CCN(c2c(F)cc3c(=O)c(C(=O)O)cn4c3c2Oc2ccc(Cl)cc2-4)C1', '%', 86.1),
  ('N[C@H]1CCN(c2c(F)cc3c(=O)c(C(=O)O)cn4c3c2Oc2ccc([N+](=O)[O-])cc2-4)C1', '%', 95.3),
  ('O=C(O)c1cn2c3c(c(F)c(F)cc3c1=O)Oc1ccccc1-2', '%', 96.6);
